Readings of Activity for the listed molecules
- Tested on: Mus musculus
- assay notes: Toxicity in ovariectomized ICR mouse assessed as kidney weight at 110.3 nmol/kg, po treated for 4 weeks measured after 1 day of last treatment
- Assay type: organism-based
- assay context: in vivo, 24 h
Residues, ends and D or L forms follow the SMILES beside them. *: point of attachment. Succinyl(O17-estradiol) = C[C@]12CC[C@@H]3c4ccc(O)cc4CC[C@H]3[C@@H]1CC[C@@H]2OC(=O)CCC(=O)*; Acetyl(estradiol-3-yloxy) = C[C@]12CC[C@@H]3c4ccc(OCC(=O)*)cc4CC[C@H]3[C@@H]1CC[C@@H]2O
Output spec: scalar in g, unitless text.

C[C@]12CC[C@@H]3c4ccc(OCC(=O)N[C@@H](CCCNC(=N)N)C(=O)NCC(=O)N[C@@H](CC(=O)O)C(=O)N[C@@H](CO)C(=O)O)cc4CC[C@H]3[C@@H]1CC[C@@H]2O ({Acetyl(estradiol-3-yloxy)}-RGDS-OH); 0.193

Shift focus to the following entry.
Record summary for C[C@]12CC[C@@H]3c4ccc(O)cc4CC[C@H]3[C@@H]1CC[C@@H]2OC(=O)CCC(=O)N[C@@H](CCCNC(=N)N)C(=O)NCC(=O)N[C@@H](CC(=O)O)C(=O)N[C@@H](CO)C(=O)O ({Succinyl(O17-estradiol)}-RGDS-OH) : reported Activity = 0.182
